Every entry's value here was drawn from patent US20250326748A1.

Kindly state IC50 for each of the entries shown.
Tested on: MYB mRNA
test: Splicing RT-qPCR assay, MYB canonical (CJ) and alternative (AJ) junction mRNA
Type: cell-based, human
measurement-context: Homo sapiens, canonical junction mRNA, qPCR panel; read-out: MYB CJ (decrease in CJ mRNA levels, IC50)

Cc1c(O)c(-c2ccc3nc(N4CCNCC4)cnc3n2)cc2cn(C)nc12 100 to 1000 nM
CCN[C@@H]1CCN(c2cnc3nc(-c4cc5cn(C)nc5cc4O)cc(Cl)c3c2)C1 < 100 nM
Cc1c(O)c(-c2ccc3c(Cl)c(N4CCNCC4)cnc3n2)cc2cn(C)nc12 < 100 nM
Cc1c(O)c(-c2cc(Cl)c3cc(N(C)[C@H]4CCNC4)cnc3n2)cc2cn(C)nc12 100 to 1000 nM
CCN[C@@H]1CCN(c2cnc3nc(-c4cc5cn(C)nc5c(C)c4O)ccc3c2)C1 < 100 nM
CN[C@@H]1CCN(c2cnc3nc(-c4cc(C)c5nc(C)cn5n4)ccc3c2)C1 < 100 nM
Cn1cc2cc(-c3cnc4cc(N5CC[C@@H](NC6CC6)C5)ccc4n3)c(O)c(F)c2n1 < 100 nM

Then this compound:
For the compound Cc1c(O)c(-c2cc(C#N)c3cc(N4C[C@H](C)N[C@@H](C)C4)cnc3n2)cc2cn(C)nc12 , the measured IC50 on MYB mRNA was < 100 nM
